Tested on: SK-OV-3 ovarian
Assay: NCI tumour cell line growth inhibition, 48 h
Record form. Attribute: TGI. Fill in for each entry.
Quick note: give the figure in µM, leave out the unit.

Incoming: Please give the measured TGI for this compound: COc1ccc(C(SCCO)(c2ccccc2)c2ccc(OC)cc2)cc1
Outgoing: 35.4

Incoming: Lookup O=c1cc(-c2ccc3c(c2)OCO3)[nH]c2cc3c(cc12)OCO3
Outgoing: 99.4

----------
Assign TGI to each entry below.
Test system: MDA-MB-435
Assay: NCI tumour cell line growth inhibition, 48 h

Incoming: Param item = COc1cc2c(cc1OC)-c1cc(OC)c(OC)cc1C(CN(C)C)C2 (stereo not drawn) ; retrieve measured TGI.
Outgoing: > 10 µM

Incoming: Also check O=C1c2cccc3cc([N+](=O)[O-])cc(c23)C(=O)N1Nc1ccc([N+](=O)[O-])cc1[N+](=O)[O-]
Outgoing: > 46.4 µM

Incoming: And what about the molecule NCCNCCNCCN ?
Outgoing: > 100 µM

Incoming: Proceed to COc1ccc(C(SCCO)(c2ccccc2)c2ccc(OC)cc2)cc1
Outgoing: 20.5 µM

Incoming: And what about the molecule O=C(O)Cc1ccc([N+](=O)[O-])cc1[N+](=O)[O-] ?
Outgoing: > 100 µM

Incoming: Further, for CC(=O)OCc1ccc2c(c1)C(O)NC(=O)O2 (stereo not drawn) ?
Outgoing: > 100 µM

Incoming: Now consider CN(C)c1ccc(/C=N/NC(=S)Nc2ccccc2)cc1 .
Outgoing: > 100 µM

Incoming: And what about the molecule O=C1OC(c2ccccc2)=N/C1=C\c1ccc([N+](=O)[O-])cc1 ?
Outgoing: > 100 µM

Incoming: # repeat for COC(=O)/C=C/c1cc(OC(C)=O)c2c(c1)[C@@H](C(=O)OC)[C@H](c1ccc(OC(C)=O)c(OC(C)=O)c1)O2
Outgoing: 0.0466 µM

Incoming: Here is the next molecule: Cc1nnc2ccnn2c1C
Outgoing: > 100 µM

Incoming: # repeat for CCOC(=O)CCC(NC(=O)C(N)Cc1ccc(N(CCCl)CCCl)cc1)C(=O)OCC (stereo not drawn)
Outgoing: 3.75 µM

Incoming: Record: C=C(C)C(=O)O[C@@H]1C[C@@]2(C)O[C@@H]2C[C@H](O)/C(C)=C/[C@H]2OC(=O)C(=C)[C@@H]21
Outgoing: > 100 µM

Incoming: // next record CC1=NN(c2nc(N)nc(COc3ccc(N)cc3)n2)C(C)(C)C1
Outgoing: > 100 µM

----------
Task for the reader: assign each of the following compounds its reported TGI.
Tested on: DMS 114 small cell lung
Test: NCI tumour cell line growth inhibition, 48 h
Express your answer in µM, writing the number without its unit.

Incoming: State the recorded TGI for this entry: CCOc1ccc(NC2=CC(=O)C(=O)c3ccccc32)cc1
Outgoing: 3.71

Incoming: Would you mind doing COc1cc2c(cc1OC)C(Cl)C(c1ccc(F)cc1)=C2Cl (centres undefined) as well?
Outgoing: 28.5

Incoming: Entry CC(=O)OCCOCNC(=S)N/N=C/c1ccc([N+](=O)[O-])o1 please
Outgoing: 43.1

Incoming: For Cc1[cH-]c(=O)n(-c2ccccc2)n1.[Au+].[Au].c1ccc([PH+](c2ccccc2)c2ccccc2)cc1.c1ccc([PH+](c2ccccc2)c2ccccc2)cc1 then?
Outgoing: 11.6

Incoming: // repeat for Cc1ccc(C(=O)OC(C(=O)O)C(OC(=O)c2ccc(C)cc2)C(=O)O)cc1 (centres undefined) (tested in a mixture with another compound) and report
Outgoing: 12.9

Incoming: Try the compound CCCC/C=C/C=C/C=C/CCCCCCCC(=O)OCC(COC(=O)CCCCCCC/C=C/C1C=CC(CCCC)C(C(=O)O)C1C(=O)O)OC(=O)CCCCCCC/C=C/C=C/C=C/CCCC (centres undefined) (tested in a mixture with another compound)
Outgoing: 23.1

Incoming: What about this compound? CN(C)C(=S)/N=c1\ssc(=S)n1C1CCCCC1
Outgoing: 50.5

Incoming: Try the compound O=C1c2ccccc2C(=O)c2c(/C=C\N3CCCCC3)ccnc21
Outgoing: 4.2

Incoming: Consider next the compound COc1ccc2c(c1)[n+]([O-])c(C(N)=O)c(N)[n+]2[O-] in the same way.
Outgoing: 98.8

The reported measurements were obtained from PubChem BioAssay (NCI).
